- STUDY_TARGET: T1, N-terminal ectodomain of human GLP1R expressed with a myc-myc hexahistidine tag (human, UniProt P43220 24-145, limits assumed)
- T1 construct: extracellular domain; also called hGLP1R-MMH; hGLP1R.mmh
- T1 sequence (P43220 24-145 limits assumed): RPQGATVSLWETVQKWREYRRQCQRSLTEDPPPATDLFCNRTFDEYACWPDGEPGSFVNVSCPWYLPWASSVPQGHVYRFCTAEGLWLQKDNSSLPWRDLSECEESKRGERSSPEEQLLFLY
- TEST_METHOD_NOTES: SPR, captured via anti-hFc, 25 C
ENDPOINT_LABEL: Kd (nM)
# value in nM; strip the unit string

BINDER: REGN8051 (antibody, V domains shown, parental antibody without Q-tag; also called parent of REGN8070) VH: QVQLVESGGGVGQPGRSLRLSCAASGFTFSRNAMHWVRQAPGKGLEWVAVISYDGSNKHYADSVKGRFTISRDNSKNTLYLEMNSLRVEDTAVYYCAKGGIPFDYWGQGTLVTVSS VL: DIVMTQSPLSSPVTLGQPASISCRSSQSLVHFDGNTYLSWLHQRPGQPPRLLIYKISNRFSGVPDRFSGSGAGTDFTLKISRVEPEDVGVYYCMHATQFPYTFGQGTKLEIK
MEASURE_UNIT: nM
Kd: 3.41

BINDER: H2aM30341N (antibody, V domains shown, parent of H4H30341N (REGN9278 without Q-tag); also called parent of REGN9278) VH: QVQLQQWGAGLLKPSETLSLTCAVYGGSFSGYYWSWIRQPPGKGLEWIGEINHAGSTNYNPSLKSRITISVDTSKNQFSLKLSSVTAADTAVYYCARGWYYGSGSYHRNWFDPWGQGTLVTVSS VL: EIVLTQSPGTLSLSPGERATLSCRASQSVYYSYLAWYQQKPGQAPRLLIYGASNRATGIPDRFSGSGSGTDFTLTISRLEPEDFAVYYCQQYGNSPWTFGQGTKVEIK
MEASURE_UNIT: nM
Kd: 0.346

BINDER: H1M30345N (antibody, V domains shown) VH: EVQLVESGGGLVKPGGSLRLSCAASGFIFSRYSMNWVRQAPGKGLEWVSSMSSNSKNTYYADSVKGRFTISRDNAKNSLFLQMNTLRAEDTAVYYCARDGYTLRAFDIWGQGTMVTVSS VL: EIVLTQSPGTLSLSPGERDTLSCRASQSIAGRYVAWYQQKPGQAPRLLIYGASSRATGIPDRFSGSGSGTDFTLTISRLEPEDFAVYYCQQYGSSPWTFGQGTKVEIK
MEASURE_UNIT: nM
Kd: 0.16

Here is another binder to look at.
Incoming: Entry REGN8052 (antibody, V domains shown, parental antibody without Q-tag; also called parent of REGN8072) VH: QVQLVESGGGVVQPARSLRLSCAASGFAFSRSAMHWVRQAPGKGLEWVAVISYDGSNKYYTDSVKGRFTISRDNSKNTLYLQMNTLRAEDTALYYCAKMYTTMDSFDYWGQGTLVTVSS VL: DIQLTQSPSFLSASVGDRVTITCWASQGISSYLAWYQQKPGKAPKLLIYAASTLQSGVPSRFSGSGSGTEFTLTISSLQPEDFALYYCQQLNSYPRTFGQGTKVEIK has what Kd?
Outgoing: 5.49
